# test_target: IRAK4 (Homo sapiens)
# Construct: Degradation of IRAK4 in OCI-LY10 was quantitatively measured using Meso Scale Discovery technology; endogenous in cells; host or cells: OCI-LY10
# test_protocol: IRAK4 MSD Degradation in OCI-LY10
# Type: cell-based
# condition_set: OCI-LY10 cells, 24 hrs incubation, MSD; read-out: IRAK4 degradation in OCI-LY10 at 24 hrs: DC50
measured_property: DC50

Cn1c(=O)n(C2CCC(=O)NC2=O)c2cccc(N3CCN([C@H]4CCN(C[C@H]5CC[C@H](n6cc(NC(=O)c7cnn8ccc(N9C[C@H]%10C[C@@H]9CO%10)nc78)c(C(F)F)n6)CC5)CC4(F)F)CC3)c21 (some centres unmarked) [I-721] | < 10 nM
Cn1c(=O)n(C2CCC(=O)NC2=O)c2cccc(C#CCN3CCN(C[C@H]4CC[C@H](n5cc(NC(=O)c6cnn7ccc([C@@H]8CCOC8)nc67)c(C(F)F)n5)CC4)CC3)c21 (some centres unmarked) | > 200 nM
CO[C@]1(CN2CCN(C[C@H]3CC[C@H](n4cc(NC(=O)c5cnn6ccc(N7C[C@H]8CC7CO8)nc56)c(C(F)F)n4)CC3)CC2)C[C@H](c2cccc3c2n(C)c(=O)n3C2CCC(=O)NC2=O)C1 (some centres unmarked) | > 200 nM
Cn1c(=O)n(C2CCC(=O)NC2=O)c2cccc(C3CCN(C[C@]4(O)CC[C@@H](n5cc6cc(NC(=O)c7cccc(C(F)(F)F)n7)ccc6n5)CC4)CC3)c21 (some centres unmarked) [I-711] | < 10 nM

Given O=C1CCC(c2ccc([C@H]3C[C@H](CO[C@H]4CCN(C[C@H]5CC[C@H](n6cc(NC(=O)c7cnn8ccc(N9C[C@H]%10C[C@@H]9CO%10)nc78)c(C(F)F)n6)CC5)C[C@H]4F)C3)cc2Cl)C(=O)N1 (some centres unmarked) , state its recorded DC50.
> 200 nM

---

# test_target: IRAK4 (Homo sapiens, UniProt Q9NWZ3)
# Construct: Degradation of IRAK4 in OCI-LY10 was quantitatively measured using Meso Scale Discovery technology; endogenous in cells; host or cells: OCI-LY10
# Sequence (Q9NWZ3 whole entry): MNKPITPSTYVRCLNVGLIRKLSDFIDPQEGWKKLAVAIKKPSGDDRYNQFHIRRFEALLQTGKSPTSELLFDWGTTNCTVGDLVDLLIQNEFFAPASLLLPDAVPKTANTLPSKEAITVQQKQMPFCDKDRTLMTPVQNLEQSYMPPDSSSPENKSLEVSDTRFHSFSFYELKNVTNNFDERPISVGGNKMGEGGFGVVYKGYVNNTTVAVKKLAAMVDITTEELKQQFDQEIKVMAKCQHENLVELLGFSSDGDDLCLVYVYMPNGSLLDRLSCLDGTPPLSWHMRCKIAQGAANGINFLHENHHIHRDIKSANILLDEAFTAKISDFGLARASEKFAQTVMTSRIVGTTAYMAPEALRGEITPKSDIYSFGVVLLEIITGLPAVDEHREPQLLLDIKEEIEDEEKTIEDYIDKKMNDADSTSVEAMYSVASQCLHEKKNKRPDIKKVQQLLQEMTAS
# test_protocol: IRAK4 MSD Degradation in OCI-LY10
# Assay type: cell-based
# condition_set: OCI-LY10 cells, 4 hrs incubation, MSD; read-out: IRAK4 degradation in OCI-LY10 at 4 hrs: DC50
The entries below come with measured DC50 values attached.

Worked cases, DC50 given:
Cn1c(=O)n(C2CCC(=O)NC2=O)c2cccc(CC[C@H]3CN(C[C@H]4CC[C@H](n5cc(NC(=O)c6cnn7cccnc67)c(C(F)F)n5)CC4)CCO3)c21 (some centres unmarked) | < 10 nM
Cn1c(=O)n(C2CCC(=O)NC2=O)c2cccc(N3CC(CO[C@H]4CCN(C[C@H]5CC[C@H](n6cc(NC(=O)c7cnn8ccc(N9C[C@H]%10CC9CO%10)nc78)c(C(F)F)n6)CC5)C[C@H]4F)C3)c21 (some centres unmarked) | > 200 nM
O=C1CCC(n2c(=O)n(C3CC3)c3c(C#CCOC4CCN(C[C@H]5CC[C@H](n6cc(NC(=O)c7cnn8ccc(N9C[C@H]%10C[C@@H]9CO%10)nc78)c(C(F)F)n6)CC5)CC4)cccc32)C(=O)N1 (some centres unmarked) | < 10 nM
CN(c1cccc2c1n(C)c(=O)n2C1CCC(=O)NC1=O)C1CN(C[C@H]2CC[C@H](n3cc4cc(NC(=O)c5cccc(C(F)(F)F)n5)ccc4n3)CC2)C1 (some centres unmarked) | > 200 nM
COc1ccc2c(c1N1CCN(CC3CCC(n4cc5cc(NC(=O)c6cccc(C#N)n6)ccc5n4)CC3)CC1)n(C)c(=O)n2C1CCC(=O)NC1=O (centres unmarked) | > 200 nM

Given CN(C[C@H]1CC[C@H](n2cc(NC(=O)c3cnn4ccc(N5CCS(=O)(=O)CC5)nc34)c(C(F)F)n2)CC1)C1CCN(c2cccc3c2n(C)c(=O)n3C2CCC(=O)NC2=O)CC1(F)F (some centres unmarked) , state its recorded DC50.
> 200 nM

Given Cn1c(=O)n(C2CCC(=O)NC2=O)c2cccc(C#CCN3CCN(C[C@H]4CC[C@H](n5cc(NC(=O)c6cnn7ccc(N8CCC9(COC9)C8)nc67)c(C(F)F)n5)CC4)CC3)c21 (some centres unmarked) , state its recorded DC50.
< 10 nM

Given Cn1c(=O)n(C2CCC(=O)NC2=O)c2cccc(C3CCN(C[C@H]4CC[C@H](n5cc6cc(NC(=O)c7cccc(C(F)(F)F)n7)ccc6n5)CC4)CC3(F)F)c21 (some centres unmarked) [I-445] , state its recorded DC50.
> 200 nM

The origin of these recorded values is patent US12091411B2.
